Target: T1, human TPBG-hFc protein (human, UniProt Q13641 32-355)
T1 construct: range 32-355; Expressed in HEK293 cells, purified on protein A; also called immunogen A; hFc tagged TPBG protein; not shown: human IgG Fc fragment of the pCpC vector
T1 sequence (looked up): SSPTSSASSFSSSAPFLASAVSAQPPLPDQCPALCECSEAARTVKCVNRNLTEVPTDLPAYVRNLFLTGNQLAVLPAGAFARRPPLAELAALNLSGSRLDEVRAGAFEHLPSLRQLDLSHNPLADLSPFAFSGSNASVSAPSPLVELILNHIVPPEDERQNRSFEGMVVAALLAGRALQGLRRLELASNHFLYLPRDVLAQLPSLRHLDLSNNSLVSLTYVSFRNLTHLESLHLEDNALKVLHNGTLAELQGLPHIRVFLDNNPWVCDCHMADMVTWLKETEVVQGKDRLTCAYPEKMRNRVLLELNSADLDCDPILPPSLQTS
Test: ELISA, coated human TPBG-hFc
Mark true for EC50 under 0.3 nM, false if at or over.

binder: Humanized antibody 12B12-8 (antibody, V domains shown, also called h12B12-8) VH: EVQLVESGGGVVQPGRSLRLSCAASGFTFSNFGMHWVRQAPGKGLEWVAYISSGSTSFYYADTVKGRFTISRDNSKNTLYLQMNSLRAEDTAVYYCSRTNSLLRGFFDAWGQGTTVTVSS VL: DIVLTQSPDSLAVSLGERATINCRASQSVSSSSYTYLHWYQQKPGQPPKLLIKSASNLESGVPDRFSGSGSGTDFTLTISSLQAEDVAVYYCQHSWEIPLTFGQGTKLEIK
cat: true
--
binder: Humanized antibody 28D4-1 (antibody, V domains shown, also called h28D4-1) VH: EVQLVESGGGLVKPGGSLRLSCAASGFTFSNYVMSWIRQAPGKGLEWVSEISTGGSHTYYSDTVTGRFTISRDNAKNSLYLQMNSLRAEDTAVYYCARFYYGSSYSMDYWGQGTTVTVSS VL: DIQMTQSPSSLSASVGDRVTITCRASQDIRNYLNWYQQKPGKAPKLLIYHTSRLHSGVPSRFSGSGSGTDFTFTISSLQPEDIATYYCQQGDTLPLTFGQGTRLEIK
cat: false
--
binder: Humanized antibody 28D4-4 (antibody, V domains shown, also called h28D4-4) VH: EVQLVESGGGLVKPGGSLRLSCAASGFTFSNYVMSWARQAPGKRLEWVAEISTGGSHTYYSDTVTGRFTISRDNAKKSLYLQMNSLRAEDTAVYYCIMFYYGSSYSMDYWGQGTTVTVSS VL: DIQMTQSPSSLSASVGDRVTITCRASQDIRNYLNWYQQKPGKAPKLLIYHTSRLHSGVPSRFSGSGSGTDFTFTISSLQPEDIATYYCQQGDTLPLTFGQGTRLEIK
cat: true
--
binder: Humanized antibody 28D4-5 (antibody, V domains shown, also called h28D4-5) VH: EVQLVESGGGLVKPGGSLRLSCAASGFTFSNYVMSWIRQAPGKGLEWVSEISTGGSHTYYSDTVTGRFTISRDNAKNSLYLQMNSLRAEDTAVYYCARFYYGSSYSMDYWGQGTTVTVSS VL: DIQMTQSPSSLSASVGDRVTITCRASQDIRNYLNWYQQKPGKAPKLLIYHTSRLHSGVPSRFSGSGSGTDYTFTISSLQPEDIATYYCQQGDTLPLTFGQGTRLEIK
cat: false
--
binder: Humanized antibody 12B12-4 (antibody, V domains shown, also called h12B12-4) VH: EVQLVESGGGLVQPGGSLRLSCAASGFTFSNFGMHWVRQAPGKGLEWVSYISSGSTSFYYADTVKGRFTISRDNAKNSLYLQMNSLRDEDTAVYYCARTNSLLRGFFDAWGQGTTVTVSS VL: DIVLTQSPDSLAVSLGERATINCRASQSVSSSSYTYLHWYQQKPGQPPKLLIKSASNLESGVPDRFSGSGSGTDFTLTISSLQAEDVAVYYCQHSWEIPLTFGQGTKLEIK
cat: true
